Data origin: PubChem BioAssay (NCI)

# Tested on: NCI-H522 lung
# measurement.description: NCI tumour cell line growth inhibition, 48 h
recorded.metric: TGI

Recorded TGI (compound Cc1cc(-c2cnn3c(NCC4CC(C)(O)C4)cc(Oc4cccnc4)nc23)ccc1C(=O)NC1CC1 (stereo not drawn) ): > 100 µM

---

Listing: TGI of selected compounds
# Tested on: KM12 colon
# measurement.description: NCI tumour cell line growth inhibition, 48 h

- compound: "Nc1nccc(-c2c(-c3ccc(F)cc3)ncn2C2CCC(O)CC2)n1 (centres undefined)"
  TGI: "> 25 µM"
- compound: "COC(=O)C1=C(O)C(C(=O)OC)[C@]2(O)[C@H](C(=O)OC)[C@H]1C[C@@H](c1ccc(Cl)cc1)[C@H]2C(=O)OC (some centres undefined)"
  TGI: "46.6 µM"
- compound: "CCOC1Oc2ccc(C)cc2C(=O)/C1=C\\Nc1ccc(C(N)=O)cc1 (centres undefined)"
  TGI: "34.3 µM"
- compound: "CC/C=C\\C[C@H](F)C/C=C1/C(=O)C=C[C@@H]1C/C=C\\CCCC(=O)O"
  TGI: "13.3 µM"
- compound: "C[C@]12CC[C@H](OC(=O)Cc3ccc(N(CCCl)CCCl)cc3)CC1=CC[C@@H]1[C@@H]2CC[C@]2(C)C(=O)CC[C@@H]12"
  TGI: "> 100 µM"

Recorded TGI (compound Cc1ccc(-c2nc3nc(-c4ccccc4)nc(N4CCCNCC4)c3o2)cc1 ): 3.41 µM

Recorded TGI (compound Clc1ccccc1-c1nc2ccc(C34CC5CC(CC(C5)C3)C4)cc2[nH]1 ): > 100 µM

Recorded TGI (compound COC1(C)CP(=O)(OC(C)C)CC(C)=C1Cl (centres undefined) ): 34 µM

Recorded TGI (compound NC(=O)COC(=O)c1c(Cl)nc2sccn12 ): > 100 µM

Recorded TGI (compound COc1ccc2c(c1)C(=O)Cc1ccccc1CC2 ): > 100 µM

Recorded TGI (compound CCCC(=O)OCC1OC(n2cnc3c(=S)nc[nH]c32)C(OC(=O)CCC)C1OC(=O)CCC (centres undefined) ): > 100 µM

Recorded TGI (compound CC(C)(CO)N1CCN(C(=S)Nc2ccccc2)CC1 ): > 100 µM

Recorded TGI (compound COC(=O)Nc1nc2ccc(Oc3ccc(NC(=O)Nc4cc(C(F)(F)F)ccc4F)cc3)cc2s1 ): > 25 µM

Recorded TGI (compound O=C(O)c1nn(-c2ccccc2-c2n[nH]c(=O)[nH]c2=O)c(=O)[nH]c1=O ): > 100 µM
